run-description: yeast display, Sf9 membrane polyspecificity reagent, FACS + sequencing; frameworks hold sequencing errors

| residues | polyreactivity (PSR sort gate) |
| --- | --- |
| QDQLVESGGGLVQAGGSLRLSCAASGLIFFFYPMGWYRQAPGKERELVASISGGGITYYADSVKGRFTISRDNAKNTVYLQMNSLKQEDTPVIKNDYWGQGTQVTLSS | low polyreactivity |
| QVQLVESGGGLVQAGGSLRLSCAASGSIFPDNAMGWYRQAPGKERELVAAISLSGGRTYYADSVKGRFTISRDNAKNTVYLQMNSLKPEDTAVYYCAAKQRPKSYGPGHYYWGQGTQVTVSS | high polyreactivity |
| QVQLVESGGGLVQAGVSLRLSCAASGFIFRPYTMGWYRLAPGKERELVAAISRSGDSTYYADSVKGRFTISRDNAKNTVYLQMNSLKPEDTAVYYCAAYYNGRVGPYYYWGQGTQVTVSS | high polyreactivity |
| QVQLVESGGGLVQAGGSLRLSCAASGFTFNDYAMGWYRQAPGKARELVAAIEWYGGRTYYADSVKGRFTISRDHAKNTDYFHMTSLKPVATAVYYCAAVLYSRLDWYRLDYWGQGTQVTVSS | low polyreactivity |
| QVQLVESGGGLVQAGGSLRLSCAASGFTFYRYAMGWYRQAPGKERELVAAFSGSGGSTYYADSVKGRFTISRDNAKNTVYLQMNSLKPEDTAVYYCNTVWFYGAKYDYWGQGTQVTVSS | high polyreactivity |
